tgt: RORγ (UniProt P51449)
measurement.notes: RORγ Gal4 Reporter Gene Assay in 293T cells (firefly and renilla luciferase)
Format: cell-based, human
Readings of pIC50 (REN) for the listed compounds

Use the examples below as a reference point.
Cc1c(C(=O)NCC2(O)CCOCC2)cc(-c2cc(C(=O)NC(C)(C)C)cc(C3(C)CC3)c2)n1CC1CCCCC1 = 6.1/7.4/7.6
Cc1c(C(=O)NCCN2CCOCC2)cc(-c2cc(C(C)(C)C)cc(C(C)(C)C)c2)n1CC1CCCCC1 = 6.2/6.6/6.6
CC(C)(O)CNC(=O)c1cc(-c2ccc(S(=O)(=O)NC(C)(C)C)c(C(C)(C)C)c2)n(CC2CCCCC2)c1C(F)(F)F = 5.0/<4.7/<4.7
Cc1c(C(=O)NCC(C)(C)C(N)=O)cc(-c2cc(C(C)(C)C)cc(C(C)(C)C)c2)n1CC1CCCCC1 = 6.4/7.6/7.5
Cc1c(C(=O)NCCN(C)C)cc(-c2cc(C(C)(C)C)cc(C(C)(C)C)c2)n1CC1CCCCC1 = 5.5/<4.7/<4.7
Cc1cc(S(=O)(=O)NC(C)(C)C)c(C(F)(F)F)cc1-c1cc(C(=O)NC2CCOCC2)c(C)n1CC1CCCCC1 = 5.8/6.5/6.5

Entry Cc1c(C(=O)NCCN2CCOCC2)cc(-c2cc(C(C)(C)C)cc(C3(C)CC3)c2)n1CC1CCCCC1 : reported pIC50 (REN) = ? 6.4/6.5/6.5

Try this compound next: Cc1c(C(=O)NC2COC2)cc(-c2cc(C(=O)NC(C)(C)C)nc(C(C)(C)C)c2)n1CC1CCCCC1 6.2/6.3/6.4

Try this compound next: Cc1c(C(=O)NCCCCCN2CCOCC2)cc(-c2cc(C(C)(C)C)cc(C(C)(C)C)c2)n1CC1CCCCC1 5.31/<4.7<4.7

Try this compound next: Cc1c(C(=O)NCC(C)(C)O)cc(-c2cc(C(=O)NC(C)(C)C)cc(C3(C)CC3)c2)n1CC1CCCCC1 6.4/7.4/7.4

Try this compound next: Cc1c(C(=O)NC2COC2)cc(-c2cc(C(C)(C)C)cc(C(C)(C)C)c2)n1S(=O)(=O)N(C)C1CCCCC1 6.5/6.3/6.4

Try this compound next: Cc1c(C(=O)NC2(C)COC2)cc(-c2cc(C(C)(C)C)c3c(c2)C2(CCO3)CC2)n1CC1CCCCC1 6.2/6.8/6.9

Try this compound next: Cc1c(C(=O)NC2CCOCC2)cc(-c2cc(C(C)(C)O)cc3ccccc23)n1CC1CCCCC1 6.3/6.4/6.2

Try this compound next: Cc1c(C(=O)NCC2CCOCC2)cc(-c2ccc(S(=O)(=O)NC(C)(C)C)c(C(C)(C)C)c2)n1CC1CCCCC1 6.3/7.5/7.5

Try this compound next: Cc1c(C(=O)NC[C@H]2CC[C@H](C(=O)O)CC2)cc(-c2cc(C(C)(C)C)c3c(c2)C2(CCO3)CC2)n1CC1CCCCC1 5.7/6.6/6.6
